Values compiled from PubChem BioAssay (NCI).

# Tested on: RXF 393 renal
# method: NCI-60 one-dose screen, 48 h
# stated.conditions: 10 µM unless noted
This is part of a sample that, as a whole, favours compounds with a hit. Of some 83,000 tested, about 20% had one in any assay. Activity calls are given as the source filed them. The calls were made as follows: active = growth percent below 10; inactive = the rest.
Labels: active, inactive

[
  {
    "molecule": "FCc1nc2nc(Cl)c(Cl)nc2[nH]1",
    "classification": "inactive"
  },
  {
    "molecule": "C1=C2CNCC3=Cc4ccc5ccccc5c4OC23Oc2c1ccc1ccccc21",
    "classification": "active"
  },
  {
    "molecule": "Nc1nc(SN=Nc2ccc(S(N)(=O)=O)cc2)c2[nH]cnc2n1",
    "classification": "active"
  },
  {
    "molecule": "COc1cc2nc(-c3ccc(C(F)(F)F)cc3)cc(OCCCN3CCC(O)CC3)c2cc1OC",
    "classification": "inactive"
  },
  {
    "molecule": "CNC(=O)Nc1ccc(-c2nc(N3CCOCC3)nc3c2cnn3C2CCOCC2)cc1",
    "classification": "active"
  },
  {
    "molecule": "Cc1[nH]n(-c2cccc(Cl)c2)c(=O)c1/C=C1\\C=Nc2ccc(Br)cc21",
    "classification": "active"
  },
  {
    "molecule": "COc1ccc(CNCCN2C(=O)c3ccc4c5c(ccc(c35)C2=O)C(=O)N(CCNCc2ccc(OC)cc2)C4=O)cc1",
    "classification": "active"
  },
  {
    "molecule": "CCCN=C(N)c1ccc(NC(=O)c2ccc(C(=O)Nc3ccc(C(N)=NCCC)cc3)cc2)cc1",
    "classification": "inactive"
  },
  {
    "molecule": "O=S(=O)(c1ccc(N/N=C\\c2ccccc2)cc1)c1ccc(N/N=C/c2ccccc2)cc1",
    "classification": "inactive"
  },
  {
    "molecule": "CCCNC(=O)Oc1ccc(/C(=C(\\C)c2ccccc2)c2ccc(OCCN3CCCCC3)cc2)cc1",
    "classification": "inactive"
  },
  {
    "molecule": "O=S(=O)(NCCCNc1nccc(-c2c(-c3cccc(O)c3)nc3occn23)n1)c1ccc(Br)cc1",
    "classification": "inactive"
  },
  {
    "molecule": "C#CCNC(=O)[C@H](Cc1ccccc1)NC(=O)[C@]12CC[C@@H](C(=C)C)[C@@H]1[C@H]1CC[C@@H]3[C@@]4(C)Cc5c([nH]c6ccccc56)C(C)(C)[C@@H]4CC[C@@]3(C)[C@]1(C)CC2",
    "classification": "inactive"
  },
  {
    "molecule": "CC(C)NC(=O)N1C(=O)CCC1NNC(=O)c1ccc([N+](=O)[O-])cc1 (centres undefined)",
    "classification": "inactive"
  },
  {
    "molecule": "COc1cc2c(cc1[N+](=O)[O-])-c1ccc([N+](=O)[O-])cc1/C2=N/NC(N)=S",
    "classification": "inactive"
  },
  {
    "molecule": "COc1cc2nc(-c3ccc(C(F)(F)F)cc3)cc(OCCCN3CCCCC3)c2cc1OC",
    "classification": "inactive"
  },
  {
    "molecule": "c1ccc(-c2nn(-c3ccccc3)[n+](-c3ccccc3-c3ccccc3)n2)cc1",
    "classification": "inactive"
  },
  {
    "molecule": "Nc1c(C(=O)Nc2cccc3ccncc23)sc2nc3c(cc12)C(=O)CCC3",
    "classification": "inactive"
  },
  {
    "molecule": "C=C1C(=O)O[C@H]2[C@H]1CC/C(COC(=O)/C=C/c1c[nH]c3ccccc13)=C\\CC[C@@]1(C)O[C@@H]21",
    "classification": "active"
  },
  {
    "molecule": "COc1ccc(C2CC(n3nnnc3-c3ccccc3)=NN2)cc1 (centres undefined)",
    "classification": "inactive"
  },
  {
    "molecule": "CC1(C)NCCC[C@]2(C)[C@H]3CC=C4[C@@H]5C[C@@](C)(CO)CC[C@]5(C)CC[C@@]4(C)[C@]3(C)CC[C@@H]12",
    "classification": "inactive"
  },
  {
    "molecule": "COc1ccc2c(Nc3ccc(NS(C)(=O)=O)cc3)c3ccccc3nc2c1",
    "classification": "active"
  },
  {
    "molecule": "FC(F)(F)c1cccc(Nc2ccccc2)c1",
    "classification": "inactive"
  },
  {
    "molecule": "CC(=O)c1cccc(NS(=O)(=O)c2cccc(C(=O)Nc3ccc(Br)cc3)c2)c1",
    "classification": "inactive"
  },
  {
    "molecule": "Nc1ccccc1NC(=O)c1ccc(CN2CCC/C(=C\\c3cccc(Cl)c3)C2=O)cc1",
    "classification": "inactive"
  },
  {
    "molecule": "CS(=O)(=O)c1ccc(-c2cc(-c3nnc(SCC(=O)Nc4ccc(C(=O)/C=C/c5ccc(Cl)cc5)cc4)n3-c3ccccc3)c3ccccc3n2)cc1",
    "classification": "inactive"
  },
  {
    "molecule": "CC1NC(=S)NC(=O)/C1=C/c1cc(=O)oc2c1ccc1ccccc12 (centres undefined)",
    "classification": "inactive"
  },
  {
    "molecule": "COc1cccc(CNCCN2C(=O)c3ccc4c5c(ccc(c35)C2=O)C(=O)N(CCNCc2cccc(OC)c2)C4=O)c1",
    "classification": "inactive"
  },
  {
    "molecule": "O=C(O)/C=C\\C(=O)N1C/C(=C\\c2ccccc2Cl)C(=O)/C(=C/c2ccccc2Cl)C1",
    "classification": "active"
  },
  {
    "molecule": "O=S(=O)(O)c1cc(O)c2c(N=Nc3ccc(Nc4ccccc4)c4c(S(=O)(=O)O)cccc34)cc(S(=O)(=O)O)cc2c1",
    "classification": "inactive"
  }
]

###

# Tested on: SK-MEL-28 melanoma
# method: NCI-60 one-dose screen, 48 h (100 = growth as untreated, 0 = no growth, -100 = all killed)
# stated.conditions: 10 µM unless noted
About 83,000 compounds went through this panel and 20% of them were active in at least one assay; those are over-represented in the sample as a whole.

[
  {
    "compound": "COc1cc(/C=C2\\C(=O)N(Cc3ccc(Cl)cc3)c3ccccc32)cc(OC)c1OC",
    "growth (%)": -42.6
  },
  {
    "compound": "Cn1ncc2c(Nc3ccccc3Cl)nc(Cl)nc21",
    "growth (%)": 119
  },
  {
    "compound": "O=C(Nc1ccc(Nc2ncccn2)cc1)NC1C=c2ccccc2=CC1 (stereo not given)",
    "growth (%)": 107
  },
  {
    "compound": "O=C1CCC(NC(=S)Nc2ccccc2)N1 (stereo not given)",
    "growth (%)": 108
  },
  {
    "compound": "COc1cc(NCC(C)(O)CN(CC(C)C)CC(C)C)c2nc(C)ccc2c1 (stereo not given)",
    "growth (%)": 99.3
  }
]

###

# Test system: OVCAR-4 ovarian
# method: NCI-60 one-dose screen, 48 h
# stated.conditions: 10 µM unless noted
# Protocol: Growth inhibition of the OVCAR-4 human tumor cell line is measured as a screen for anti-cancer activity. Cells are grown in 96 well plates and exposed to the test compound for 48 hours. Compounds are tested at a single concentration, which is 10^-5 M for most compounds. The reported endpoint is percent growth (GI% or GIPRCNT), where numbers from 0 - 100% represent growth inhibition, and numbers from -100% - 0 represent cell death. For example, a value of 40 represents 60% growth inhibition. […]
About 83,000 compounds went through this panel and 20% of them were active in at least one assay; those are over-represented in the sample as a whole. The source made the active and inactive calls. Rule for the calls: active = growth percent below 10; inactive = the rest.
Possible outcomes: T for active, F for inactive

[
  {
    "compound": "COc1ccc(-c2nn(Cc3ccccc3)c3c2-c2oncc2CC3)cc1OC",
    "classification": "F"
  },
  {
    "compound": "O=C1Nc2cc(-c3ccncc3)ccc2/C1=C/c1ccc[nH]1",
    "classification": "F"
  },
  {
    "compound": "NC(=S)N/N=C(/c1ccccc1)c1ccccc1N",
    "classification": "F"
  },
  {
    "compound": "NC(=O)c1cccc(-c2cc(C(N)=O)ccc2Cl)c1",
    "classification": "F"
  },
  {
    "compound": "BrC(Br)(Br)c1cnc2ccccc2n1",
    "classification": "F"
  },
  {
    "compound": "Cn1c2c(Cl)c(Cl)ccc2c2cc(N)[nH]c(=O)c21",
    "classification": "F"
  },
  {
    "compound": "CCCCCCCCN1C(=O)/C(=c2\\sc3n(c2=O)C2C(NN=3)N(CC)C(=O)N2CC)c2ccccc21 (stereo not drawn)",
    "classification": "F"
  },
  {
    "compound": "CCn1cc(C2NC(=O)c3ccccc3N2)c2cccc(C)c21 (stereo not drawn)",
    "classification": "F"
  },
  {
    "compound": "O=S(=O)(NCCNc1nccc(-c2c(-c3ccc(F)c(O)c3)nc3occn23)n1)c1ccccc1",
    "classification": "F"
  },
  {
    "compound": "c1ccc(C2CC(c3cccc(Nc4ccncc4)c3)=NN2c2ccccc2)cc1 (stereo not drawn)",
    "classification": "F"
  },
  {
    "compound": "COc1cc(OC)cc(C2C3=C(COC3=O)Nc3cc(OC)ccc32)c1 (stereo not drawn)",
    "classification": "F"
  },
  {
    "compound": "COc1cc2nc(Cc3ccc(C)cc3)[nH]c(=O)c2cc1OC",
    "classification": "F"
  },
  {
    "compound": "O=C1C(=O)c2c(nc3ncccn23)-c2ccccc21",
    "classification": "T"
  }
]
